Source of measurements: patent US10125126B2

Catalogue of chromatographic logP values
Assay: log P by HPLC on a reversed-phase column (C 18), EEC Directive 79/831 Annex V.A8
Assay type: physicochemical
Conditions: reversed-phase HPLC column (C 18), HPLC, C 18, 40° C., 0.1% aqueous formic acid and acetonitrile; read-out: logP
observedProperty: chromatographic logP

{"columns": ["compound", "observedProperty", "reportedMeasurement"],
 "data": [
  ["Clc1ccc(-c2ccc(Cl)s2)c(CNC2CC2)c1 [IIa.7]", "chromatographic logP", 1.51],
  ["CC(NC1CC1)c1ccccc1-c1ccsc1 (centres unmarked) [IIa.4]", "chromatographic logP", 1.42],
  ["Clc1ccc(-c2cccs2)cc1CNC1CC1 [IIb.2]", "chromatographic logP", 1.29],
  ["Clc1ccc(-c2ccsc2)c(CNC2CC2)c1 [IIa.5]", "chromatographic logP", 1.12],
  ["Clc1ccc(-c2ccccc2CNC2CC2)s1 [IIa.6]", "chromatographic logP", 1.28],
  ["CC(C)c1ccc(Cl)cc1C=NO", "chromatographic logP", 2.9],
  ["c1ccc(-c2ccsc2)c(CNC2CC2)c1 [IIa.3, N-[2-(3-thienyl)benzyl]cyclopropanamine]", "chromatographic logP", 1.34],
  ["Clc1ccc(-c2ccsc2)cc1CNC1CC1 [IIb.3]", "chromatographic logP", 1.28],
  ["Clc1ccc(-c2ccco2)c(CNC2CC2)c1 [IIa.1]", "chromatographic logP", 0.99],
  ["Clc1ccc(-c2ccco2)cc1CNC1CC1 [IIb.1]", "chromatographic logP", 1.08],
  ["Clc1ccc(-c2cccs2)c(CNC2CC2)c1 [IIa.2]", "chromatographic logP", 1.1],
  ["CC(C)c1ccc(Cl)cc1CN", "chromatographic logP", 1.2],
  ["CC(C)c1ccc(Cl)cc1CN(C(=O)c1c(C(F)F)nn(C)c1F)C1CC1", "chromatographic logP", 4.06],
  ["Clc1ccc(-c2ccc(Cl)c(CNC3CC3)c2)s1 [IIb.4]", "chromatographic logP", 1.58]
]}
